Just for reference, patent US11015216B2 is where these values come from.

study system: NanoLuc® Luciferase (Oplophorus gracilirostris, UniProt Q9GV45, A31E/A60N/A81I/F95D/I117V/K70R/L54V/L99Q/M102K/N193R/P142E/Q151K/Q38R/Q45L/V71I/Y165I)
Sequence (Q9GV45 other isoform, or with tags, fused parts or gaps with the stated changes): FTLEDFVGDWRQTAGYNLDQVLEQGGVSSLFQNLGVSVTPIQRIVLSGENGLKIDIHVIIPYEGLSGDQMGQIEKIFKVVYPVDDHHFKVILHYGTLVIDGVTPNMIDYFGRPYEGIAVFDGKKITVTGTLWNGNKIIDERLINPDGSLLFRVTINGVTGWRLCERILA
Format: biochemical
condition set: ratio to coelenterazine (=1); initial light output three minutes after substrate addition
Reported I (relative light units, ratio in comparison to native coelenterazine) is given for each of the following compounds.
measurement type: I (relative light units, ratio in comparison to native coelenterazine)

>>> measured_value("Oc1ccc(Cc2nc3c(Cc4ccccc4)nc(-c4ccc(O)cc4)cn3c2O)cc1 [coelenterazine, reference compound]")
1
>>> measured_value("Cn1nc(-c2cccs2)cc1Cc1nc2c(Cc3ccccc3)[nH]c(-c3ccccc3)cn-2c1=O [Compound 12]")
0.192
>>> measured_value("O=c1c(Cc2ccc(CN3CCOCC3)o2)nc2c(Cc3ccccc3)[nH]c(-c3ccccc3)cn1-2 [Compound 81]")
0.246
>>> measured_value("CN(C)c1ccc(Cc2nc3c(Cc4ccccc4)[nH]c(-c4ccccc4)cn-3c2=O)cn1 [Compound 77]")
1.75
>>> measured_value("O=c1c(Cc2ccc(F)nc2)nc2c(Cc3ccccc3)[nH]c(-c3ccccc3)cn1-2 [Compound 68]")
12.916
>>> measured_value("O=c1c(Cc2cncc(F)c2)nc2c(Cc3ccccc3)[nH]c(-c3ccccc3)cn1-2 [Compound 66]")
1.625
>>> measured_value("O=c1c(Cc2ccc(Br)nc2)nc2c(Cc3ccccc3)[nH]c(-c3ccccc3)cn1-2 [Compound 70]")
5
>>> measured_value("O=c1c(Cc2ccc3ccccc3c2)nc2c(Cc3ccccc3)[nH]c(-c3ccccc3)cn1-2 [Compound 4]")
9.166
>>> measured_value("O=c1c(Cc2cccnc2F)nc2c(Cc3ccccc3)[nH]c(-c3ccccc3)cn1-2 [Compound 67]")
4.583
>>> measured_value("O=C(O)c1ccc(Cc2nc3c(Cc4ccccc4)[nH]c(-c4ccccc4)cn-3c2=O)cc1 [Compound 10]")
0.142
>>> measured_value("CC(C)(C)c1ccc(Cc2nc3c(Cc4ccccc4)[nH]c(-c4ccccc4)cn-3c2=O)cc1 [Compound 5]")
3.875
>>> measured_value("O=c1c(Cc2cccnc2)nc2c(Cc3ccccc3)[nH]c(-c3ccccc3)cn1-2 [Compound 64]")
2.75
>>> measured_value("O=c1c(Cc2c(F)cc(F)cc2F)nc2c(Cc3ccccc3)[nH]c(-c3ccccc3)cn1-2 [Compound 78]")
8.75
>>> measured_value("Cc1ccc(Cc2nc3c(Cc4ccccc4)[nH]c(-c4ccccc4)cn-3c2=O)cn1 [Compound 76]")
1.666
>>> measured_value("O=c1c(Cc2csc3ccccc23)nc2c(Cc3ccccc3)[nH]c(-c3ccccc3)cn1-2 [Compound 7]")
4.166
